The reported measurements were obtained from ChEMBL document CHEMBL1128394.

# experimental-target: Endothelin-converting enzyme 1 (Homo sapiens)
# Sequence (P42892 whole entry): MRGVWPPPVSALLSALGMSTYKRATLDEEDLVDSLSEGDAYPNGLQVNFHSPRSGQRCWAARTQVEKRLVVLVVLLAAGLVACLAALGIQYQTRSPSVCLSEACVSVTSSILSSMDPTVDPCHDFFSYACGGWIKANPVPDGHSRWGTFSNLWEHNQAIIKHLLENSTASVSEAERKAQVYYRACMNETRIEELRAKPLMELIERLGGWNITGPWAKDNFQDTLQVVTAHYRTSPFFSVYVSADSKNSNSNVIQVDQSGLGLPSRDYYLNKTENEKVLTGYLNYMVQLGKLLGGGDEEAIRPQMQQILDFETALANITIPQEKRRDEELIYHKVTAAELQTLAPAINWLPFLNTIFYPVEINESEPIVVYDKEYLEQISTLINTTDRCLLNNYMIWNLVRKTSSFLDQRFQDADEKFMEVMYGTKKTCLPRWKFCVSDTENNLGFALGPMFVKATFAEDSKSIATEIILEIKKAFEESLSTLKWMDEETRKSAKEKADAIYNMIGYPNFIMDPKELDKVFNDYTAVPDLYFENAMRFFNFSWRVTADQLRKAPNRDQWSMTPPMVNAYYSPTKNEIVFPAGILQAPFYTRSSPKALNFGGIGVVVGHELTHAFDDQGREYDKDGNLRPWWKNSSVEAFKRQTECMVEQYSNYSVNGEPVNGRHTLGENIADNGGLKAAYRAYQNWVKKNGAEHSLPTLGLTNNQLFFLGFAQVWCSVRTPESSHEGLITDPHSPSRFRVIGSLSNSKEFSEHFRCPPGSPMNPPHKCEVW
pIC50: −log10 of the molar value. Residues, ends and D or L forms follow the SMILES beside them. *: point of attachment. Cbz = O=C(OCc1ccccc1)*; NHOH = ON*
test-readout: pIC50

Worked examples follow.
{"columns": ["compound", "experimental-target", "pIC50"],
 "data": [
  ["C[C@H](NC(=O)[C@@H](CC(=O)NO)Cc1ccccc1)C(=O)O [KELATORPHAN]", "Endothelin-converting enzyme 1 (Homo sapiens)", 8.10],
  ["CC(C)C(C(=O)NO)C(=O)NC(CC(N)=O)C(=O)O (stereo not given)", "Endothelin-converting enzyme 1 (Homo sapiens)", 8.52],
  ["CC(C)CC(C(=O)NO)C(=O)NC(Cc1c[nH]c2ccccc12)C(N)=O (stereo not given)", "Endothelin-converting enzyme 1 (Homo sapiens)", 8.32]
]}

I = CC(C)C[C@H](NC(=O)[C@@H]1CCCN1C(=O)OCc1ccccc1)C(=O)NCC(=O)NO (Cbz-Pro-Leu-Gly-{NHOH})
II = CC(C)C(C(=O)NO)C(=O)NCCC(=O)O (stereo not given)
Ask: I or II : whose pIC50 is greater? Pick one; state its label.
Reply: II
